Source of measurements: patent EP0321273A2

Test system: isolated rat aorta
Assay: Test B: activity against contractions induced by high K+ concentrations (60 mM K+) in isolated rat aorta
Type: cell-based
Details: contraction induced by 60 mM K⁺; rat thoracic aorta strips denuded of endothelium, cumulative addition; read-out: concentration in the bath reducing the K⁺-induced contraction by 90%
EXPERIMENTAL ENDPOINT: IC90

The following compounds have reported results that may help.
# COMPOUND, RESULT VALUE
records = [
    ("CNC(=S)C1(c2ccc(Cl)c(Cl)c2)CCCCC1=O (racemic) [J]", "> 30 µM"),
    ("CNC(=S)C1(c2ccccc2)CCCCC1=NO (racemic) [Compound C]", "> 30 µM"),
    ("CNC(=S)C1(c2ccccc2)CCCCC1=O (racemic) [Compound A]", "> 30 µM"),
    ("CNC(=S)C1(c2ccc3ccccc3c2)CCCCC1=O (racemic) [I]", "> 30 µM"),
]

Next compound, please.
Qu. Write down the reported IC90 of CNC(=S)C1(c2cccc(C(F)(F)F)c2)CCCCC1=O (racemic) [F] , test system: isolated rat aorta.
Ans. > 30 µM

----------
In this section we review reported IC90 values for a set of compounds.
System: isolated rat aorta
Assay: Test B: activity against contractions induced by high K+ concentrations (60 mM K+) in isolated rat aorta
Assay type: cell-based
Details: contraction induced by 60 mM K⁺; rat thoracic aorta strips denuded of endothelium, cumulative addition; read-out: concentration in the bath reducing the K⁺-induced contraction by 90%

# COMPOUND, EXPERIMENTAL SYSTEM, IC90
records = [
    ("CNC(=S)C1(c2ccccc2)CCCCC1=NOC (racemic)", "isolated rat aorta", "> 30 µM"),
]

Qu. Give its IC90 value. Item: CNC(=S)C1(c2cccc([N+](=O)[O-])c2)CCCCC1=O (racemic)
Ans. > 30 µM

Qu. Repeat for the following compound: CNC(=S)C1(c2ccc(Cl)cc2)CCCCC1=O (racemic)
Ans. > 30 µM
